Cited source: ChEMBL document CHEMBL4138062

Target: Amine oxidase [flavin-containing] A (Homo sapiens, UniProt P21397)
Sequence (P21397 whole entry): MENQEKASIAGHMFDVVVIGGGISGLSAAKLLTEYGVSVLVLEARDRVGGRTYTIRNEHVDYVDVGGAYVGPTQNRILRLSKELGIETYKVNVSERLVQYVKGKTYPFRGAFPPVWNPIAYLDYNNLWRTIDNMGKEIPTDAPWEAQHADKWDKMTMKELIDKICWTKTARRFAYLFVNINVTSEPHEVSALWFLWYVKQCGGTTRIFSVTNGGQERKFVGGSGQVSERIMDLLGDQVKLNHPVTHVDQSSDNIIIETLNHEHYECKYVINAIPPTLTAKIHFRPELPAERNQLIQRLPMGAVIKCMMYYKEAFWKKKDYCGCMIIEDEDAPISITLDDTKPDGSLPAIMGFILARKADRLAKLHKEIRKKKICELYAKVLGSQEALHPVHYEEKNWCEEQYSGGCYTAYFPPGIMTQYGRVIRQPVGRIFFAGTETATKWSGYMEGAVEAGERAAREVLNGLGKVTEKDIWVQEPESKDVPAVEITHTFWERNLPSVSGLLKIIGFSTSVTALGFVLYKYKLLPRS
Could you please report measured IC50 for the items listed next?
Numbers only here, please. The scale is µM.

query: IC50 of CN1c2c(nn(-c3ccc(/C=N/NC(=S)Nc4ccccc4)cc3)c2-c2ccccc2)-c2ccccc2S1(=O)=O on Amine oxidase [flavin-containing] A (Homo sapiens, UniProt P21397)?
result: 27.2

query: IC50 of Cc1c2c(nn1-c1ccc(/C=N/NC(=S)Nc3cccc(F)c3)cc1)-c1ccccc1S(=O)(=O)N2C on Amine oxidase [flavin-containing] A (Homo sapiens, UniProt P21397)?
result: 0.47

query: IC50 of Cc1c2c(nn1-c1ccc(/C=N/NC(=S)NCN3CCOCC3)cc1)-c1ccccc1S(=O)(=O)N2C on Amine oxidase [flavin-containing] A (Homo sapiens, UniProt P21397)?
result: 64.8

query: IC50 of CN1c2c(nn(-c3ccc(/C=N/NC(=S)NCc4ccccc4)cc3)c2-c2ccccc2)-c2ccccc2S1(=O)=O on Amine oxidase [flavin-containing] A (Homo sapiens, UniProt P21397)?
result: 10.6

query: IC50 of CN1c2c(nn(-c3ccc(/C=N/NC(=S)Nc4cccc(F)c4)cc3)c2-c2ccccc2)-c2ccccc2S1(=O)=O on Amine oxidase [flavin-containing] A (Homo sapiens, UniProt P21397)?
result: 9.02

query: IC50 of Cc1c2c(nn1-c1ccc(/C=N/NC(=S)Nc3ccc(F)cc3)cc1)-c1ccccc1S(=O)(=O)N2C on Amine oxidase [flavin-containing] A (Homo sapiens, UniProt P21397)?
result: 30.2

query: IC50 of Cc1ccc(NC(=S)N/N=C/c2ccc(-n3nc4c(c3-c3ccccc3)N(C)S(=O)(=O)c3ccccc3-4)cc2)c(C)c1 on Amine oxidase [flavin-containing] A (Homo sapiens, UniProt P21397)?
result: 9.15

* * *

Could you please report measured inhibition at 100 µM for the items listed next?
Biological target: Amine oxidase [flavin-containing] B (Homo sapiens, UniProt P27338)
Sequence (P27338 whole entry): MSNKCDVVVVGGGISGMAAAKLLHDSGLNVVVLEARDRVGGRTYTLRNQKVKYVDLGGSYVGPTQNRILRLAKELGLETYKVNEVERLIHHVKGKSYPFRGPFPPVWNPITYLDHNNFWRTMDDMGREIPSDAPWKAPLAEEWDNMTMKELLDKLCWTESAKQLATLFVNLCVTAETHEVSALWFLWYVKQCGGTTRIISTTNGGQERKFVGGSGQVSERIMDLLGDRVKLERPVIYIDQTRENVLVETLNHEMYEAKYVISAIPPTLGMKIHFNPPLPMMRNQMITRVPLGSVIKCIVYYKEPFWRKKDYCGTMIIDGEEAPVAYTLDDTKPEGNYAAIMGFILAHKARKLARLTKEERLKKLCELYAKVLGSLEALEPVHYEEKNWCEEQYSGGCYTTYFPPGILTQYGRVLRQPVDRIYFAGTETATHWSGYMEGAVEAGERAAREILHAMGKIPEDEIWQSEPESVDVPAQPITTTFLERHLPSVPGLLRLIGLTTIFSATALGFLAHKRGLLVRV
Assay: Inhibition of human MAOB at 0.1 mM pre-incubated for 10 mins before p-tyramine substrate addition and measured after 10 mins by amplex red reagent-based microplate fluorescence reader analysis

query: For the compound shown here, CN1c2c(nn(-c3ccc(/C=N/NC(=S)Nc4ccc(Cl)cc4)cc3)c2-c2ccccc2)-c2ccccc2S1(=O)=O , give the reported inhibition at 100 µM.
result: > 50%

query: For the compound shown here, CCc1ccc(NC(=S)N/N=C/c2ccc(-n3nc4c(c3C)N(C)S(=O)(=O)c3ccccc3-4)cc2)cc1 , give the reported inhibition at 100 µM.
result: > 50%

query: For the compound shown here, CN1c2c(nn(-c3ccc(/C=N/NC(=S)Nc4ccccc4F)cc3)c2-c2ccccc2)-c2ccccc2S1(=O)=O , give the reported inhibition at 100 µM.
result: 19%

query: For the compound shown here, Cc1c2c(nn1-c1ccc(/C=N/NC(=S)Nc3ccc(F)cc3)cc1)-c1ccccc1S(=O)(=O)N2C , give the reported inhibition at 100 µM.
result: 41%

query: For the compound shown here, Cc1c2c(nn1-c1ccc(/C=N/NC(=S)Nc3cccc(F)c3)cc1)-c1ccccc1S(=O)(=O)N2C , give the reported inhibition at 100 µM.
result: > 50%

query: For the compound shown here, Cc1ccc(NC(=S)N/N=C/c2ccc(-n3nc4c(c3C)N(C)S(=O)(=O)c3ccccc3-4)cc2)c(C)c1 , give the reported inhibition at 100 µM.
result: > 50%

query: For the compound shown here, CN1c2c(nn(-c3ccc(/C=N/NC(=S)Nc4ccc(F)cc4)cc3)c2-c2ccccc2)-c2ccccc2S1(=O)=O , give the reported inhibition at 100 µM.
result: > 50%

query: For the compound shown here, CN1c2c(nn(-c3ccc(/C=N/NC(N)=S)cc3)c2-c2ccccc2)-c2ccccc2S1(=O)=O , give the reported inhibition at 100 µM.
result: > 50%

query: For the compound shown here, Cc1c2c(nn1-c1ccc(/C=N/NC(=S)Nc3ccccc3F)cc1)-c1ccccc1S(=O)(=O)N2C , give the reported inhibition at 100 µM.
result: > 50%

query: For the compound shown here, CN1c2c(nn(-c3ccc(/C=N/NC(=S)Nc4ccccc4)cc3)c2-c2ccccc2)-c2ccccc2S1(=O)=O , give the reported inhibition at 100 µM.
result: > 50%

query: For the compound shown here, Cc1c2c(nn1-c1ccc(/C=N/NC(=S)Nc3ccc(Cl)cc3)cc1)-c1ccccc1S(=O)(=O)N2C , give the reported inhibition at 100 µM.
result: > 50%

query: For the compound shown here, CN1c2c(nn(-c3ccc(/C=N/NC(=S)Nc4cccc(F)c4)cc3)c2-c2ccccc2)-c2ccccc2S1(=O)=O , give the reported inhibition at 100 µM.
result: > 50%

query: For the compound shown here, Cc1c2c(nn1-c1ccc(/C=N/NC(=S)NCc3ccccc3)cc1)-c1ccccc1S(=O)(=O)N2C , give the reported inhibition at 100 µM.
result: > 50%

query: For the compound shown here, Cc1c2c(nn1-c1ccc(/C=N/NC(N)=S)cc1)-c1ccccc1S(=O)(=O)N2C , give the reported inhibition at 100 µM.
result: 36%

query: For the compound shown here, Cc1c2c(nn1-c1ccc(/C=N/NC(=S)NCN3CCOCC3)cc1)-c1ccccc1S(=O)(=O)N2C , give the reported inhibition at 100 µM.
result: > 50%

query: For the compound shown here, CN1c2c(nn(-c3ccc(/C=N/NC(=S)Nc4ccccc4Cl)cc3)c2-c2ccccc2)-c2ccccc2S1(=O)=O , give the reported inhibition at 100 µM.
result: > 50%

query: For the compound shown here, Cc1c2c(nn1-c1ccc(/C=N/NC(=S)Nc3cccc(Cl)c3)cc1)-c1ccccc1S(=O)(=O)N2C , give the reported inhibition at 100 µM.
result: > 50%

query: For the compound shown here, CN1c2c(nn(-c3ccc(/C=N/NC(=S)Nc4cccc(Cl)c4)cc3)c2-c2ccccc2)-c2ccccc2S1(=O)=O , give the reported inhibition at 100 µM.
result: > 50%

query: For the compound shown here, CN1c2c(nn(-c3ccc(/C=N/NC(=S)NCc4ccccc4)cc3)c2-c2ccccc2)-c2ccccc2S1(=O)=O , give the reported inhibition at 100 µM.
result: > 50%

query: For the compound shown here, CN1c2c(nn(-c3ccc(/C=N/NC(=S)NCN4CCOCC4)cc3)c2-c2ccccc2)-c2ccccc2S1(=O)=O , give the reported inhibition at 100 µM.
result: > 50%

query: For the compound shown here, Cc1c2c(nn1-c1ccc(/C=N/NC(=S)Nc3ccccc3Cl)cc1)-c1ccccc1S(=O)(=O)N2C , give the reported inhibition at 100 µM.
result: > 50%

query: For the compound shown here, Cc1c2c(nn1-c1ccc(/C=N/NC(=S)Nc3ccccc3)cc1)-c1ccccc1S(=O)(=O)N2C , give the reported inhibition at 100 µM.
result: > 50%

query: For the compound shown here, Cc1ccccc1NC(=S)N/N=C/c1ccc(-n2nc3c(c2C)N(C)S(=O)(=O)c2ccccc2-3)cc1 , give the reported inhibition at 100 µM.
result: > 50%

query: For the compound shown here, Cc1cccc(C)c1NC(=S)N/N=C/c1ccc(-n2nc3c(c2-c2ccccc2)N(C)S(=O)(=O)c2ccccc2-3)cc1 , give the reported inhibition at 100 µM.
result: > 50%

query: For the compound shown here, Cc1ccc(NC(=S)N/N=C/c2ccc(-n3nc4c(c3C)N(C)S(=O)(=O)c3ccccc3-4)cc2)cc1 , give the reported inhibition at 100 µM.
result: > 50%

query: For the compound shown here, Cc1ccc(NC(=S)N/N=C/c2ccc(-n3nc4c(c3-c3ccccc3)N(C)S(=O)(=O)c3ccccc3-4)cc2)c(C)c1 , give the reported inhibition at 100 µM.
result: > 50%

query: For the compound shown here, CCc1ccc(NC(=S)N/N=C/c2ccc(-n3nc4c(c3-c3ccccc3)N(C)S(=O)(=O)c3ccccc3-4)cc2)cc1 , give the reported inhibition at 100 µM.
result: > 50%
